# Test system: NFF
# Assay Details: Cytotoxicity against human NFF cells incubated for 72 hrs by resazurin staining based microplate reader assay
# Type: toxicity, cell-based
Attribute Measured: LD99

{"columns": ["Compound String", "Test Result"],
 "data": [
  ["CN[C@@H]1C[C@H]2O[C@@](C)([C@@H]1OC)n1c3ccccc3c3c4c(c5c6ccccc6n2c5c31)C(=O)NC4", "0.09 µM"],
  ["CCCCCCC/C=C/C1=CC(=O)[C@]2(O1)C(=O)N[C@@](C)(O)[C@H]2O", "> 100 µM"],
  ["COC(=O)c1oc(=O)c2c(O)c(C(=O)O)c(O)cc2c1O", "> 100 µM"],
  ["COC(=O)c1oc(=O)c2c(O)c3c(O)c(C(C)=O)oc3cc2c1O", "> 100 µM"]
]}

The reported numbers originate from ChEMBL document CHEMBL5370597.
